Here, each record is paired with measured melting point data.

>  <molecule>
CC(=O)Nc1ccc2c(CCl)cc(=O)oc2c1

>  <melting point>
190 to 195 °C

$$$$
>  <molecule>
Cc1nc(S)c(C#N)cc1C(=O)Nc1ccccc1

>  <melting point>
201 to 203 °C

$$$$
>  <molecule>
Cc1cc(=O)[nH]cn1

>  <melting point>
138 to 140 °C

$$$$
>  <molecule>
O=C(O)CCC(Cc1ccc(Cl)cc1)C(=O)O (stereo not drawn)

>  <melting point>
137 to 139 °C

$$$$
>  <molecule>
COc1ccc(C(=O)O)nc1I

>  <melting point>
189 to 191 °C

$$$$
>  <molecule>
O=C(O)CCc1nc(-c2ccc(F)cc2)no1

>  <melting point>
150 to 152 °C

$$$$
>  <molecule>
Cc1ccc(F)c(-n2cc(O)c(C(=O)O)n2)c1

>  <melting point>
201 to 203 °C

$$$$
>  <molecule>
OC1CCC(c2ccccc2)CC1 (stereo not drawn)

>  <melting point>
117 to 119 °C

$$$$
>  <molecule>
NC(=S)CCc1ccccc1

>  <melting point>
82 to 84 °C

$$$$
>  <molecule>
O=C(O)c1ccc(S(=O)(=O)Cl)cc1Cl

>  <melting point>
133 to 135 °C

$$$$
>  <molecule>
Cc1ccc(N)c(Cl)c1Cl

>  <melting point>
45 to 47 °C

$$$$
>  <molecule>
O=Cc1cn2cc(Cl)ccc2n1

>  <melting point>
183 to 185 °C

$$$$
>  <molecule>
N#CC(N)c1ccc2ccccc2c1 (stereo not drawn)

>  <melting point>
116 to 118 °C

$$$$
>  <molecule>
Cn1c(-c2ccccn2)cccc1=O

>  <melting point>
66 to 68 °C

$$$$
>  <molecule>
Cn1c(O)c([N+](=O)[O-])c(=O)c2ccccc21

>  <melting point>
159 to 161 °C

$$$$
>  <molecule>
COc1ccc(C2C(C(=O)O)CCC(=O)N2c2ccc(OC)cc2)cc1 (stereo not drawn)

>  <melting point>
178 to 180 °C

$$$$
>  <molecule>
Cc1ccc(OCCCC(=O)O)cc1

>  <melting point>
83 to 85 °C

$$$$
>  <molecule>
O=C(O)C1CCCCN1C1=NS(=O)(=O)c2ccccc21 (stereo not drawn)

>  <melting point>
185 to 187 °C

$$$$
>  <molecule>
CC1CCC(C(C)C)C(OC(=O)CSc2ccccc2C(=O)O)C1 (stereo not drawn)

>  <melting point>
137 to 139 °C

$$$$
>  <molecule>
NC(=O)C1CNCCO1 (stereo not drawn)

>  <melting point>
158 to 160 °C

$$$$
>  <molecule>
CNC(=O)c1cccc(N)n1

>  <melting point>
102 to 104 °C

$$$$
>  <molecule>
OCc1ccc2cn[nH]c2c1

>  <melting point>
158 to 160 °C

$$$$
>  <molecule>
CC(C)Cn1c(N)c(C=O)c(=O)n(C)c1=O

>  <melting point>
192 to 194 °C

$$$$
>  <molecule>
CS(=O)(=O)N1CCc2c(N)cccc2C1

>  <melting point>
155 to 157 °C

$$$$
>  <molecule>
O=C(c1ccc(Cl)c(Cl)c1)C1CC1

>  <melting point>
29 to 31 °C

$$$$
>  <molecule>
ClCc1csc(COc2ccccc2)n1

>  <melting point>
49 to 51 °C

$$$$
>  <molecule>
O=C(O)c1cccc(Oc2ccc(Cl)cc2)c1

>  <melting point>
164 to 166 °C

$$$$
>  <molecule>
O=C(O)CCC(=O)c1ccc2ccc3cccc4ccc1c2c34

>  <melting point>
184 to 186 °C

$$$$

* * *

Here, each record is paired with measured melting point data.
parameterMeasured: melting point

>  <molecule>
c1ncn(C2CCNCC2)n1

>  <parameterMeasured>
melting point

>  <result>
97 to 99 °C

$$$$
>  <molecule>
O=C(O)CNCc1c(F)cccc1Cl

>  <parameterMeasured>
melting point

>  <result>
184 to 186 °C

$$$$
>  <molecule>
O=C(CCl)NC(=O)NCCC1=CCCCC1

>  <parameterMeasured>
melting point

>  <result>
200 to 202 °C

$$$$
>  <molecule>
O=C(O)C1CCN(S(=O)(=O)c2ccccc2)CC1

>  <parameterMeasured>
melting point

>  <result>
156 to 158 °C

$$$$
>  <molecule>
O=C(O)c1cccc(NC(=O)c2ccc3[nH]cnc3c2)c1

>  <parameterMeasured>
melting point

>  <result>
305 to 307 °C

$$$$
>  <molecule>
CC(C)(C)c1ccc(Nc2ncccc2C(N)=S)cc1

>  <parameterMeasured>
melting point

>  <result>
152 to 154 °C

$$$$
>  <molecule>
N#Cc1ccc(-n2cnc3ccccc32)cc1

>  <parameterMeasured>
melting point

>  <result>
135 to 137 °C

$$$$
>  <molecule>
COc1cc(C(=O)CBr)ccc1OC(F)F

>  <parameterMeasured>
melting point

>  <result>
45 to 46 °C

$$$$
>  <molecule>
CCS(=O)(=O)Nc1cc(Br)ccc1OC

>  <parameterMeasured>
melting point

>  <result>
105 to 107 °C

$$$$
>  <molecule>
NS(=O)(=O)c1cc(C(=O)O)cc([N+](=O)[O-])c1Cl

>  <parameterMeasured>
melting point

>  <result>
143 to 147 °C

$$$$
>  <molecule>
Cc1cc(C=O)c(C)n1-c1ccnn1C(C)C

>  <parameterMeasured>
melting point

>  <result>
77 to 79 °C

$$$$
>  <molecule>
Nc1ccc(S(=O)(=O)CC2CCCO2)cc1 (stereo unspecified)

>  <parameterMeasured>
melting point

>  <result>
100 to 102 °C

$$$$
>  <molecule>
O=C(O)CCCCN1CCOCC1

>  <parameterMeasured>
melting point

>  <result>
99 to 101 °C

$$$$
>  <molecule>
OCc1ccnc(-c2ccccc2)n1

>  <parameterMeasured>
melting point

>  <result>
43 to 45 °C

$$$$
>  <molecule>
CS(=O)(=O)c1cccc(C(N)=O)c1

>  <parameterMeasured>
melting point

>  <result>
177 to 179 °C

$$$$
>  <molecule>
CC1CCC(C)N1c1cn[nH]c1 (stereo unspecified)

>  <parameterMeasured>
melting point

>  <result>
65 to 67 °C

$$$$
>  <molecule>
CC(C)(C)Cc1nc(-c2cccc(C(=O)O)c2)no1

>  <parameterMeasured>
melting point

>  <result>
160 to 162 °C

$$$$
>  <molecule>
CS(=O)(=O)NCCc1ccc(C(=O)O)cc1

>  <parameterMeasured>
melting point

>  <result>
171 to 173 °C

$$$$
>  <molecule>
COCCCNc1c(N)n(Cc2ccccc2)c(=O)[nH]c1=O

>  <parameterMeasured>
melting point

>  <result>
148 to 150 °C

$$$$
>  <molecule>
Cc1oc(-c2ccco2)nc1CCl

>  <parameterMeasured>
melting point

>  <result>
58 to 60 °C

$$$$
>  <molecule>
Cc1nnc(NCCC(C)C)c2ccccc12

>  <parameterMeasured>
melting point

>  <result>
129 to 131 °C

$$$$
>  <molecule>
COC(=O)c1ccc(F)c(Cl)c1F

>  <parameterMeasured>
melting point

>  <result>
47 to 49 °C

$$$$
>  <molecule>
O=C(O)CCCc1ccc2[nH]c(=O)[nH]c2c1

>  <parameterMeasured>
melting point

>  <result>
244 to 246 °C

$$$$
>  <molecule>
O=C(O)c1ccc(S(=O)(=O)CC(F)F)cc1

>  <parameterMeasured>
melting point

>  <result>
212 to 214 °C

$$$$
>  <molecule>
CCOc1cc(CC#N)ccc1OCC(F)(F)F

>  <parameterMeasured>
melting point

>  <result>
40 to 42 °C

$$$$
>  <molecule>
CC(O)(c1ccc(O)cc1)C(F)(F)F (stereo unspecified)

>  <parameterMeasured>
melting point

>  <result>
118 to 120 °C

$$$$
>  <molecule>
CN(C)C(=O)c1ccc(Cl)c(S(N)(=O)=O)c1

>  <parameterMeasured>
melting point

>  <result>
130 to 132 °C

$$$$
>  <molecule>
COc1ccc2nc(C)c(C(=O)O)cc2c1

>  <parameterMeasured>
melting point

>  <result>
221 to 223 °C

$$$$
>  <molecule>
CNc1cc(C#N)c2ccccc2n1

>  <parameterMeasured>
melting point

>  <result>
166 to 168 °C

$$$$
>  <molecule>
CC(Cl)C(=O)c1ccc(C(C)(C)C)cc1 (stereo unspecified)

>  <parameterMeasured>
melting point

>  <result>
18 to 20 °C

$$$$
>  <molecule>
N#Cc1ccc(C(=O)NNC(=O)CCl)cc1

>  <parameterMeasured>
melting point

>  <result>
185 to 187 °C

$$$$
>  <molecule>
Nc1nc(-c2cccc([N+](=O)[O-])c2)cs1

>  <parameterMeasured>
melting point

>  <result>
186 to 188 °C

$$$$
>  <molecule>
COc1ccccc1NCC(=O)O

>  <parameterMeasured>
melting point

>  <result>
159 to 161 °C

$$$$
>  <molecule>
CCCCS(=O)(=O)Nc1ccc(S(=O)(=O)Cl)cc1

>  <parameterMeasured>
melting point

>  <result>
123 to 125 °C

$$$$
>  <molecule>
Nc1cc(Br)cnc1-n1cccn1

>  <parameterMeasured>
melting point

>  <result>
72 to 74 °C

$$$$
>  <molecule>
Cc1c(N)cccc1C#N

>  <parameterMeasured>
melting point

>  <result>
90 to 92 °C

$$$$
>  <molecule>
CC(c1nc(-c2ccc(Cl)cc2)no1)N1CCNCC1 (stereo unspecified)

>  <parameterMeasured>
melting point

>  <result>
78 to 80 °C

$$$$
>  <molecule>
NC(=NO)C1CCCc2ccccc21 (stereo unspecified)

>  <parameterMeasured>
melting point

>  <result>
133 to 135 °C

$$$$
>  <molecule>
Cc1cc(N)ccc1N1CCCC1=O

>  <parameterMeasured>
melting point

>  <result>
159 to 161 °C

$$$$
>  <molecule>
O=C(O)c1ccc(-n2cccc2)nc1

>  <parameterMeasured>
melting point

>  <result>
259 to 261 °C

$$$$
>  <molecule>
CC(C)Cn1cc(C(F)F)c(C(=O)O)n1

>  <parameterMeasured>
melting point

>  <result>
94 to 96 °C

$$$$
>  <molecule>
CC(=O)NC1CCC(=O)CC1

>  <parameterMeasured>
melting point

>  <result>
136 to 140 °C

$$$$
>  <molecule>
Cc1ccccc1-n1c(Cl)nc2ccccc2c1=O

>  <parameterMeasured>
melting point

>  <result>
298 to 300 °C

$$$$
>  <molecule>
Cc1nc(N2CCOCC2)sc1C=O

>  <parameterMeasured>
melting point

>  <result>
166 to 168 °C

$$$$
>  <molecule>
CC(C)C(Br)C(=O)NC1CCCC1 (stereo unspecified)

>  <parameterMeasured>
melting point

>  <result>
99 to 101 °C

$$$$
>  <molecule>
CCOC=C(C#N)C(=O)O

>  <parameterMeasured>
melting point

>  <result>
63 to 65 °C

$$$$
>  <molecule>
COc1ccc(-c2nc(C(=O)O)cs2)cc1

>  <parameterMeasured>
melting point

>  <result>
172 to 174 °C

$$$$
>  <molecule>
OC(c1ccc(Br)cc1)C(F)(F)F (stereo unspecified)

>  <parameterMeasured>
melting point

>  <result>
50 to 52 °C

$$$$
>  <molecule>
COc1cc(C=C2CCc3c2nc2ccccc2c3C(=O)O)cc(OC)c1OC

>  <parameterMeasured>
melting point

>  <result>
246 to 248 °C

$$$$
>  <molecule>
O=C1C(Br)CCCN1c1ccccc1 (stereo unspecified)

>  <parameterMeasured>
melting point

>  <result>
80 to 82 °C

$$$$
>  <molecule>
CC(=O)N1CCC(O)C1 (stereo unspecified)

>  <parameterMeasured>
melting point

>  <result>
77 to 79 °C

$$$$
>  <molecule>
Nc1onc(C2CCC2)c1-c1ccc2c(c1)OCO2

>  <parameterMeasured>
melting point

>  <result>
96 to 98 °C

$$$$
>  <molecule>
CCOC(=O)c1c(N)sc2ccccc12

>  <parameterMeasured>
melting point

>  <result>
105 to 107 °C

$$$$
>  <molecule>
O=C1OC(O)C(Cl)=C1Cl (stereo unspecified)

>  <parameterMeasured>
melting point

>  <result>
179 to 182 °C

$$$$
>  <molecule>
O=C(CCl)Nc1ccc(C(=O)O)cc1

>  <parameterMeasured>
melting point

>  <result>
230 to 232 °C

$$$$
>  <molecule>
NC(=S)c1cccc(C(F)(F)F)c1

>  <parameterMeasured>
melting point

>  <result>
66 to 68 °C

$$$$
